Biological target: T1, IL-1beta (UniProt P01584 117-269)
T1 construct: also called IL-1β
Test: Biacore
readoutName: fold difference in affinity vs parental (fold)

{"columns": ["binder", "readoutName", "scaleUnit", "reportedValue"],
 "data": [
  ["XPA23 Fab, heavy chain N104H (Fab, V domains shown) VH: EVQLLESGGGLVQPGGSLRLSCAASGFTFSKYFMFWVRQAPGKGLEWVSVISPSGGMTRYADSVKGRFTISRDNSKNTLYLQMNSLRAEDTAVYYCARVGYGGHSDYWGQGTLVTVSS VL: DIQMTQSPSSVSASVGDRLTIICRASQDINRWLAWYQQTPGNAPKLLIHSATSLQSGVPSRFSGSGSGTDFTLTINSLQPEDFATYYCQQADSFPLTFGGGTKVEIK", "fold difference in affinity vs parental", "fold", 0.07],
  ["XPA23 Fab, heavy chain K31D (Fab, V domains shown) VH: EVQLLESGGGLVQPGGSLRLSCAASGFTFSDYFMFWVRQAPGKGLEWVSVISPSGGMTRYADSVKGRFTISRDNSKNTLYLQMNSLRAEDTAVYYCARVGYGGNSDYWGQGTLVTVSS VL: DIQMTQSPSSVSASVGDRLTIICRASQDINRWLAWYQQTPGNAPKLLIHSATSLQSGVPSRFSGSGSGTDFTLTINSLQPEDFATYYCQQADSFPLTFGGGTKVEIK", "fold difference in affinity vs parental", "fold", 0.04]
]}
